Origin of measurements: ChEMBL document CHEMBL4229526

Tested on: THP-1
Assay: Cytotoxicity against human THP1 cells infected with Leishmania donovani MHOM/SD/62/1S-CL2D LdBOB amastigotes harboring eGFP assessed as reduction in cell number after 96 hrs by DAPI staining based microscopic analysis
Settings: THP-1, 96 h
readout type: IC50
Value and unit, in that order.

Here are 7 molecules together with their reported answers.
Query :: Please provide the recorded IC50 for COc1ccc2nc(NC3CCCCC3)c([S+](C)[O-])nc2c1 (stereo not drawn) , tested on THP-1.
Result :: 10 µM

Query :: Likewise for C[C@@H]1[C@H](O)[C@@H](C)/C=C/C=C/C=C/C=C/C=C/C=C/C=C/[C@H](O[C@@H]2O[C@H](C)[C@@H](O)[C@H](N)[C@@H]2O)C[C@@H]2O[C@](O)(C[C@@H](O)C[C@@H](O)[C@H](O)CC[C@@H](O)C[C@@H](O)CC(=O)O[C@H]1C)C[C@H](O)[C@H]2C(=O)O ?
Result :: 10 µM

Query :: And what about the molecule COc1ccc2nc(-c3ccc(S(C)(=O)=O)cc3)c(-c3ccc(Cl)cc3)nc2c1 ?
Result :: 12.6 µM

Query :: Now consider C[S+]([O-])c1nc2ccc(Cl)cc2nc1NC1CCCCC1 (stereo not drawn) .
Result :: 31.6 µM

Query :: Further, for CCCCCCCCCCCCCCCCOP(=O)([O-])OCC[N+](C)(C)C ?
Result :: 15.8 µM

Query :: Same thing, different molecule: CS(=O)(=O)c1nc2ccc(Cl)cc2nc1NC1CCCCC1
Result :: 6.31 µM

Query :: What do we get for COc1ccc2nc(S(C)(=O)=O)c(NCCC(C)C)nc2c1 ?
Result :: 39.8 µM

***
Query :: I'm curious: which IC50 was measured for CCCCNc1nc2cc(Br)ccc2nc1S(C)(=O)=O tested on THP-1?
Result :: 7.94 µM

---

Documented IC50 across a set of compounds
Tested on: Leishmania donovani
Test: Antileishmanial activity against Leishmania donovani MHOM/SD/62/1S-CL2D LdBOB amastigotes harboring eGFP infected in human THP1 cells assessed as reduction in number of amastigotes per cell after 96 hrs by DAPI staining based microscopic analysis
Type: functional, organism-based
Conditions: THP-1, 96 h
Entry rule: numbers only, all in µM.

Query :: Tell me reported IC50 for C[S+]([O-])c1nc2ccc(Cl)cc2nc1NC1CCCCC1 (centres undefined) , tested with Leishmania donovani.
Result :: 31.6

Query :: Can you check COc1ccc2nc(NC3CCCCC3)c(S(C)(=O)=O)nc2c1 next?
Result :: 6.31

Query :: Another compound: COc1ccc2nc(NCCO)c(S(C)(=O)=O)nc2c1
Result :: 25.1

---

Tested on: THP-1
Assay: Cytotoxicity against human THP1 cells infected with Leishmania donovani MHOM/SD/62/1S-CL2D LdBOB amastigotes harboring eGFP assessed as reduction in cell number after 96 hrs by DAPI staining based microscopic analysis
Conditions: THP-1, 96 h
readout type: pIC50
// returns pIC50 (minus log10 of molar concentration), number only

Query :: Hello, I am looking for reported pIC50 with THP-1 for COc1ccc2nc(-c3ccc(-c4ccccc4)cc3)c(-c3ccc(S(C)(=O)=O)cc3)nc2c1 . Could you help?
Result :: 4.40

Query :: Same question, COc1ccc2nc(-c3ccc(Cl)cc3)c(-c3ccc(S(C)(=O)=O)cc3)nc2c1 this time
Result :: 5.10

Query :: Let us now turn to COc1ccc2nc(NCC(C)C)c(S(C)(=O)=O)nc2c1
Result :: 5.10

Query :: Also need COc1ccc2nc(-c3ccc(Cl)cc3)c(-c3ccc([S+](C)[O-])cc3)nc2c1 (stereo not given) , thanks.
Result :: 4.90

Query :: Please answer likewise for CS(=O)(=O)c1ccc(-c2nc3ccccc3nc2-c2ccc(Cl)cc2)cc1
Result :: 5.00
